# target: IRAK4 (Homo sapiens)
# Sequence (Q9NWZ3 whole entry): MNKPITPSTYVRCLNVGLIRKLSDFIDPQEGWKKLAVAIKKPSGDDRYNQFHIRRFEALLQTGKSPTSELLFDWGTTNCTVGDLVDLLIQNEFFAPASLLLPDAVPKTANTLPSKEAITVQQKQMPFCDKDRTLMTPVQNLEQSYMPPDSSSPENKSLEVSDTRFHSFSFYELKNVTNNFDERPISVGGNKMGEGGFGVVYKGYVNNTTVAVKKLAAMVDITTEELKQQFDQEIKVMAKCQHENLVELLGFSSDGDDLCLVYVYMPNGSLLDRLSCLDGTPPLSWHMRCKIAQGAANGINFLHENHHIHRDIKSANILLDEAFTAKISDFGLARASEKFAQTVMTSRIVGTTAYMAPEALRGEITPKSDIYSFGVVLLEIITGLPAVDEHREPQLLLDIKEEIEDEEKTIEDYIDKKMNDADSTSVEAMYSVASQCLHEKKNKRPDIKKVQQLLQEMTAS
# assay: 2-hour 1 mM ATP IRAK4 Biochemical assay (as above, but with 100 pM IRAK4 and 1 mM ATP)
# study-conditions: IRAK4 MSD BIOCHEMICAL (1 mM ATP) IC50 (μM), 100 pM IRAK4, 2 hours
Where a name gives a salt, the structure may show the parent alone.
measurement-type: IC50 (µM)

> print(dat)
                                   compound                target  recorded.result
1  CCOc1nc2nc(CC3CCOC3)cn2cc1NC(=O)c1cccc(C(F)(F)F)n1 (single isomer, unassigned) [Example 95]  IRAK4 (Homo sapiens)            0.003
2  CCOc1cc2nc([C@@H]3C[C@@H]3F)cn2cc1NC(=O)c1cccc(C(F)F)n1 (relative stereo) [Example 519, hydrochloride]  IRAK4 (Homo sapiens)            0.008
3  COc1nc(NC(=O)c2coc(C(F)F)n2)cn2cc(C3CCOCC3)nc12  IRAK4 (Homo sapiens)            0.044
4  Cc1nc(C(=O)Nc2cn3cc(C4CCOCC4)nc3cc2OC(C)C)co1  IRAK4 (Homo sapiens)            0.002
5  CC(C)Oc1cc2nc(C3CCOCC3)cn2cc1NC(=O)c1ccn(C)n1  IRAK4 (Homo sapiens)            0.004
6  CCOc1cc2nc(C3CC3)cn2cc1NC(=O)c1cccc(N2CCOCC2)n1  IRAK4 (Homo sapiens)            0.044
7  COc1cc(NC(=O)c2cccc(C(F)F)n2)cn2cc(C3CCOCC3)nc12  IRAK4 (Homo sapiens)            0.013
8  CCOc1cc2nc(C3CC(F)(F)C3)cn2cc1NC(=O)c1cccc(C(F)(F)F)n1  IRAK4 (Homo sapiens)            0.011

Numbers sourced from patent US20220089592A1.
